system: MCF7; assay: percentage of EdU-negative (G0-arrested) nuclei per well, 72 h; higher = more G0 arrest; conditions: protein concentration 0.225 µM; reference: sequence is the full UniProt precursor, the tested protein was the secreted form or ectodomain;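 note: secreted proteins added to cultured cells, EdU pulse at the end, nuclei found by Hoechst imaging, EdU status from nuclear versus surrounding ring intensity ratio, PBS as neutral control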
The label depends only on percentage of EdU-negative: 1 if it is at least 30%, -1 if it is smaller.

Quick check: does `MESSRVRLLPLLGAALLLMLPLLGTRAQEDAELQPRALDIYSAVDDASHEKELIEALQEVLKKLKSKRVPIYEKKYGQVPMCDAGEQCAVRKGARIGKLCDCPRGTSCNSFLLKCL` have percentage of EdU-negative greater than or equal to 30%? -1

Quick check: does `MVGKMWPVLWTLCAVRVTVDAISVETPQDVLRASQGKSVTLPCTYHTSTSSREGLIQWDKLLLTHTERVVIWPFSNKNYIHGELYKNRVSISNNAEQSDASITIDQLTMADNGTYECSVSLMSDLEGNTKSRVRLLVLVPPSKPECGIEGETIIGNNIQLTCQSKEGSPTPQYSWKRYNILNQEQPLAQPASGQPVSLKNISTDTSGYYICTSSNEEGTQFCNITVAVRSPSMNVALYVGIAVGVVAALIIIGIIIYCCCCRGKDDNTEDKEDARPNREAYEEPPEQLRELSREREEEDDYRQEEQRSTGRESPDHLDQ` have percentage of EdU-negative greater than or equal to 30%? -1

Quick check: does MPGAAEALPTVTVTLVAGAVPPASGALTAHCIGGFWREVGVASDQSLVLTAPKRVEGLFLTLSGSNLTVKVAYNSSGSCEIEKIVGSEIDSTGKFAFPGHREIHVLDTDYEGYAILRVSLMWRGRNFRVLKYFTRSLEDKDRLGFWKFRELTADTGLYLAARPGRCAELLKEELI [Q6JVE9] have percentage of EdU-negative greater than or equal to 30%? 1

Quick check: does `MAVRQWVIALALAALLVVDREVPVAAGKLPFSRMPICEHMVESPTCSQMSNLVCGTDGLTYTNECQLCLARIKTKQDIQIMKDGKC` have percentage of EdU-negative greater than or equal to 30%? -1

Quick check: does `MEKILILLLVALSVAYAAPGPRGIIINLENGELCMNSAQCKSNCCQHSSALGLARCTSMASENSECSVKTLYGIYYKCPCERGLTCEGDKTIVGSITNTNFGICHDAGRSKQ` have percentage of EdU-negative greater than or equal to 30%? -1

---

Task for the reader: assign each of the following sequences its reported percentage of EdU-negative.
tested on: hTERT-HMEC; assay: percentage of EdU-negative (G0-arrested) nuclei per well, 72 h; higher = more G0 arrest; conditions: protein concentration 0.0225 µM; reference: sequence is the full UniProt precursor, the tested protein was the secreted form or ectodomain

Reported percentage of EdU-negative, sequence MCSTMSAPTCLAHLPPCFLLLALVLVPSDASGQSSRNDWQVLQPEGPMLVAEGETLLLRCMVVGSCTDGMIKWVKVSTQDQQEIYNFKRGSFPGVMPMIQRTSEPLNCDYSIYIHNVTREHTGTYHCVRFDGLSEHSEMKSDEGTSVLVKGAGDPEPDLWIIQPQELVLGTTGDTVFLNCTVLGDGPPGPIRWFQGAGLSREAIYNFGGISHPKETAVQASNNDFSILLQNVSSEDAGTYYCVKFQRKPNRQYLSGQGTSLKVKAKSTSSKEAEFTSEPATEMSPTGLLVVFAPVVLGLKAITLAALLLALATSRRSPGQEDVKTTGPAGAMNTLAWSKGQE [Q5JXA9] : ____ 5.12%

Reported percentage of EdU-negative, sequence `MGTSLLCWMALCLLGADHADTGVSQNPRHKITKRGQNVTFRCDPISEHNRLYWYRQTLGQGPEFLTYFQNEAQLEKSRLLSDRFSAERPKGSFSTLEIQRTEQGDSAMYLCASSL` : ____ 5.02%

Reported percentage of EdU-negative, sequence `MDFGLALLLAGLLGLLLGQSLQVKPLQVEPPEPVVAVALGASRQLTCRLACADRGASVQWRGLDTSLGAVQSDTGRSVLTVRNASLSAAGTRVCVGSCGGRTFQHTVQLLVYAFPDQLTVSPAALVPGDPEVACTAHKVTPVDPNALSFSLLVGGQELEGAQALGPEVQEEEEEPQGDEDVLFRVTERWRLPPLGTPVPPALYCQATMRLPGLELSHRQAIPVLHSPTSPEPPDTTSPESPDTTSPESPDTTSQEPPDTTSPEPPDKTSPEPAPQQGSTHTPRSPGSTRTRRPEISQAGPTQGEVIPTGSSKPAGDQLPAALWTSSAVLGLLLLALPTYHLWKRCRHLAEDDTHPPASLRLLPQVSAWAGLRGTGQVGISPS` : ____ 5.3%

Data credit: the supplement of paper PMC11316812
